Attribution: patent US10174016B2

target: human P2X2/3 receptor (Homo sapiens (Human), UniProt P56373+Q9UBL9); assay: Intracellular calcium measurement (FLIPR, Fluo-4) of antagonist activity at human P2X2/3 receptors; format: cell-based; settings: human P2X2/3, FLIPR calcium assay, agonist α,β-Me-ATP; read-out: hP2X2/3 IC50
Sequence (P56373 whole entry): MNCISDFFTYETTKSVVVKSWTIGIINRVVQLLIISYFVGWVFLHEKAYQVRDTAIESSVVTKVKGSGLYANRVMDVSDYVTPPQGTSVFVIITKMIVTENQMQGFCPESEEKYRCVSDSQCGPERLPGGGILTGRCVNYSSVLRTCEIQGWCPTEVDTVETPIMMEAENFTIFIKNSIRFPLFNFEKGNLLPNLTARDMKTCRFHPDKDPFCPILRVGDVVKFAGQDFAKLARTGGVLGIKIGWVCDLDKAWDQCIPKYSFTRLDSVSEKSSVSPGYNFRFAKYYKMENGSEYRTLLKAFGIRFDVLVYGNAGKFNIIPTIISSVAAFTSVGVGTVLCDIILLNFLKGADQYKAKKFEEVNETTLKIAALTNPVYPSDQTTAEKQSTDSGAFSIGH
Sequence (Q9UBL9 whole entry): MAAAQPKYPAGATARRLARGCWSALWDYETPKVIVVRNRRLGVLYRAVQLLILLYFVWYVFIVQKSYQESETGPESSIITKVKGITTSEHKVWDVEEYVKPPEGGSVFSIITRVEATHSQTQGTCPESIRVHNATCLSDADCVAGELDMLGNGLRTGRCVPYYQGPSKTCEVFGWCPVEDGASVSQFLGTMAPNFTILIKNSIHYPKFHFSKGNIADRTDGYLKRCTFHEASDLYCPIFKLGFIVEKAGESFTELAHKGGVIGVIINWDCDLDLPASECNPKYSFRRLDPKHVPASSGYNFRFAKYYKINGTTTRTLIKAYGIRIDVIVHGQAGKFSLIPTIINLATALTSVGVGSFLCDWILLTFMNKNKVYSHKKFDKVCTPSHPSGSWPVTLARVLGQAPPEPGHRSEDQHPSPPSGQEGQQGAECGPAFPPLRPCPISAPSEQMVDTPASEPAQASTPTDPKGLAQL
quantity measured: IC50 (nM)

As a guide, the following entries are already answered.
C[C@@H](NC(=O)c1cc(OC[C@H]2CCOC2)cc(-c2ncc(C3CCC3)s2)c1)c1cnc(C(F)(F)F)nc1 :: 164
Cc1ccc(CNC(=O)c2cc(OC3CCN(CC(F)(F)F)CC3)cc(-c3ncc(C)s3)c2)nn1 :: 192
CCc1cnc(-c2cc(OC3CCOCC3)cc(C(=O)NCc3ccc(C)nn3)c2)s1 :: 70

P: Cc1cnc([C@@H](C)NC(=O)c2cc(OCC3CC3)cc(-c3ncc(C)s3)c2)cn1
Q: Cc1cnc(-c2cc(OCC34CC(CO3)N(C)C4)cc(C(=O)N[C@H](C)c3cnc(C(F)(F)F)nc3)c2)s1 (stereo partly drawn)
R: Cc1ccc([C@@H](C)NC(=O)c2cc(OC[C@H]3CCOC3)cc(-c3ncc(C4CCC4)s3)c2)nn1
Req: Returns the items ordered by IC50, from maximum to minimum. Use the labels to give the requested order.
Resp: Q, R, P

---

target: human P2X2/3 receptor (Homo sapiens (Human), UniProt P56373+Q9UBL9); assay: Intracellular calcium measurement (FLIPR, Fluo-4) of antagonist activity at human P2X2/3 receptors; assay type: cell-based; conditions: human P2X2/3, FLIPR calcium assay, agonist α,β-Me-ATP; read-out: hP2X2/3 IC50
pIC50: −log10 of the molar value.
quantity measured: pIC50

Cc1ccc([C@@H](C)NC(=O)c2cc(O[C@H]3CCOC3)cc(-c3ncc(C)s3)c2)nn1 :: 6.01
COC(=O)N1CCO[C@H](COc2cc(C(=O)N[C@H](C)c3cnc(C(F)(F)F)nc3)cc(-c3ncc(C)s3)c2)C1 :: 5.99
Cc1ccc([C@@H](C)NC(=O)c2cc(O[C@@H]3CCOC3)cc(-c3ncc(C(C)C)s3)c2)nn1 :: 6.01

---

target: human P2X2/3 receptor (Homo sapiens (Human), UniProt P56373+Q9UBL9); assay: Intracellular calcium measurement (FLIPR, Fluo-4) of antagonist activity at human P2X2/3 receptors; type: cell-based; conditions: human P2X2/3, FLIPR calcium assay, agonist α,β-Me-ATP; read-out: hP2X2/3 IC50
quantity measured: IC50 (nM)

1: Cc1cnc(CNC(=O)c2cc(Oc3ccnc(C)c3)cc(-c3ncc(C)s3)c2)cn1
2: Cc1ccc([C@@H](C)NC(=O)c2cc(OC3CCN(CC(F)(F)F)CC3)cc(-c3ncc(C)s3)c2)nn1
Req: Given 1 and 2 , report the one with the higher recorded IC50. Reply briefly: the label of your chosen item.
Resp: 1
(1: 377 nM, 2: 35 nM)

A: Cc1cnc(-c2cc(O[C@H]3CCOC3)cc(C(=O)N[C@H](C)c3ccc(Cl)cn3)c2)s1
B: Cc1cnc([C@@H](C)NC(=O)c2cc(OC[C@H]3CCCO3)cc(-c3ncc(C)s3)c2)cn1
Req: Parameter check: reported IC50 is higher for which label, A or B ? Indicate your choice by writing its label.
Resp: B

---

molecular target: human P2X2/3 receptor (Homo sapiens (Human), UniProt P56373+Q9UBL9); experiment: Intracellular calcium measurement (FLIPR, Fluo-4) of antagonist activity at human P2X2/3 receptors; assay type: cell-based; details: human P2X2/3, FLIPR calcium assay, agonist α,β-Me-ATP; read-out: hP2X2/3 IC50
pIC50: −log10 of the molar value.
quantity measured: pIC50

C[C@@H](NC(=O)c1cc(OC[C@@H]2CCCO2)cc(-c2ncc(C3CCC3)s2)c1)c1ccc(C(F)(F)F)nn1 :: 6.09
CCc1cnc(-c2cc(OC[C@@H]3CCCO3)cc(C(=O)N[C@H](C)c3cnc(C)cn3)c2)s1 :: 6.42
COC(C)(C)COc1cc(C(=O)N[C@H](C)c2cnc(C)cn2)cc(-c2ncc(Cl)s2)c1 :: 6.05
Cc1ccc(CNC(=O)c2cc(OC[C@@H]3CCOC3)cc(-c3ncc(C)s3)c2)nn1 :: 5.18
Cc1cnc(-c2cc(OC3COC3)cc(C(=O)NC(C)c3ncc(Cl)cc3F)c2)s1 (stereo not shown) :: 6.43
Cc1ccc([C@@H](C)NC(=O)c2cc(OC[C@@H]3CCCO3)cc(-c3ncc(C)s3)c2)nn1 :: 6.29
Cc1ccc([C@@H](C)NC(=O)c2cc(OC[C@H]3CCCO3)cc(-c3ncc(C)s3)c2)nn1 :: 6.37

P: CCc1cnc(-c2cc(OC3COC3)cc(C(=O)N[C@H](C)c3cnc(C(F)(F)F)nc3)c2)s1
Q: Cc1ccc(Oc2cc(C(=O)N[C@H](C)c3cnc(C(F)(F)F)nc3)cc(-c3ncc(C)s3)c2)nn1
Req: Pick the one with the larger pIC50: P vs Q Kindly state the label of the option you pick.
Resp: P
(P: 7.15, Q: 5.69)
